Values compiled from PubChem BioAssay (NCI).

Field: TGI. Provide a value for each of the molecules that follow.
- System: LXFL 529 NSCLC
- Assay Info: NCI tumour cell line growth inhibition, 48 h

Take a look at these entries with their results.
CC1NOC(=O)C1N=Nc1cccc(Cl)c1 (stereo not drawn)
> 100 µM
O=P(CN1CCOCC1)(c1ccccc1)c1ccccc1
> 100 µM

Below: the item to evaluate.
input: Name the recorded TGI of the item Nc1nc(SCc2ccccc2Cl)c2ncn(C3OC(CO)C(O)C3O)c2n1 (stereo not drawn) in your answer.
output: > 100 µM

* * *

- System: A549 NSCLC
- Assay Info: NCI tumour cell line growth inhibition, 48 h
For each entry below, report its GI50 value.

CNC(=O)CCN1CCN(CC/C=C2\c3ccccc3Sc3ccc(Cl)cc32)CC1
10.7 µM
CC[C@H](C)[C@H](NC(=O)C12C3C4C1C1C2C3C41NC)C(=O)N(C)[C@H](C[C@@H](OC(C)=O)c1nc(C(=O)N[C@@H](Cc2ccccc2)C[C@H](C)C(=O)OC)cs1)C(C)C (stereo partly drawn)
4.61 µM
CCSC[C@@H]1C[C@](O)(c2ccccc2)[C@@H](c2ccccc2)O1
82.9 µM
CC1(C)N=C(N)N=C(N)N1c1ccc(CCCC(=O)Nc2ccc(S(=O)(=O)F)cc2)cc1
9.82 µM
NC(=NCCCCCCN=C(N)/N=C(\N)Nc1ccc(Cl)cc1)/N=C(\N)Nc1ccc(Cl)cc1
1.05 µM

Can you give me GI50 for all of these, one by one?
1. [O]=[Sn]([CH]1CCCCC1)[CH]1CCCCC1
2. Nc1ncn([C@H]2CC(O)[C@@H](CO)S2)c(=O)n1 (stereo partly drawn)
3. CCCCCCCCCCCC/C=C\CC[C@@H](O)[C@H](O)CC[C@H](O)[C@@H]1CC[C@@H](CCCCCCCC2=C[C@H](C)OC2=O)O1

output:
1.4 µM
2.79 µM
3.36 µM

* * *

- Test system: MALME-3M melanoma
- Assay Info: NCI tumour cell line growth inhibition, 48 h
Assay Endpoint: TGI (µM)
Numbers only, in µM.

COc1cc(/C=C(\C)[N+](=O)[O-])cc(OC)c1
29.4
CC(C)=C[C@@H]1C[C@H](C)[C@H]2CC[C@H](C)c3c(O)c(OC4OC(C)C(O)C(O)C4O)c(C)c1c32 (stereo partly specified)
29.8

# context switch: different compound, same TGI
input: Under MALME-3M melanoma, report TGI for Nc1ccc(CC[C@H]2CCC/C=C/[C@@H]3C[C@H](O)C[C@H]3[C@H](O)/C=C/C(=O)O2)cc1
output: 0.543

* * *

- System: NCI/ADR-RES ovarian
- Assay Info: NCI tumour cell line growth inhibition, 48 h
Exercise: for every item that follows, state its recorded TGI.
Answers are plain numbers, in µM.

In the examples that follow, each entry is paired with its recorded TGI.
CNC(=O)CCN1CCN(CC/C=C2\c3ccccc3Sc3ccc(Cl)cc32)CC1
16.5
CCN(CC)c1c(C(C)(C)C)c(=O)n2ccsc2c1OC(C)=O
28.4
CN(CCN)[C@H](CSSC[C@@H](c1ccccc1O)N(C)CCN)c1ccccc1O
23.5
O=C(Nc1cccc(-n2ccc3c(NC(=O)c4ccccc4)ncnc32)c1)Nc1ccc(Cl)c(C(F)(F)F)c1
32
O=c1ccc(N=Nc2ccccc2)ccc1O
29.6
CCn1cc(C(=O)O)c(=O)c2cc(F)c(N3CCN(S(=O)(=O)c4ccc(Cl)cc4Cl)CC3)cc21
28
CC(C)=CCC[C@@H](C)C1=C(O)C(N[C@H](C)c2ccccc2)=C(C)C(=O)C1=O
4.23
CC1OC(OC2C(O)CC(OC3C(O)CC(OC4CCC5(C)C(CCC6C5CCC5(C)C(C7=CC(=O)OC7)C(O)CC65O)C4)OC3C)OC2C)CC(O)C1O (centres undefined)
0.968

input: Note TGI for the compound shown: COc1ccc(-c2nsc3c2NC(=O)CC3c2ccsc2)cc1 (centres undefined)
output: 0.278
